// reported inhibition in vivo at 200 mg/kg for each item listed
System: carragenin edema
assay.name: Anti-inflammatory activity: carragenin edema test
Assay type: in vivo
details: Rattus norvegicus, ip, 3 h, 200 mg/kg i.p., substantially alkaline pH solution, 3 h; read-out: % inhibition of carragenin edema

compound: COc1ccc(C2CC(=O)c3c(O)cc(O[C@@H]4O[C@H](CO[C@@H]5O[C@@H](C)[C@H](O)[C@H]6OC(C)(C)O[C@@H]56)[C@@H](O)[C@H](O)[C@H]4O)cc3O2)cc1O (some centres unmarked) [No. 18]
inhibition in vivo at 200 mg/kg / %: 46
//
compound: C[C@@H]1O[C@@H](O[C@H]2[C@H](Oc3cc(O)c4c(c3)OC(c3ccc(O)cc3)CC4=O)O[C@H](CO)[C@@H](O)[C@@H]2O)[C@@H]2OC(C)(C)O[C@@H]2[C@H]1O (some centres unmarked) [No. 8]
inhibition in vivo at 200 mg/kg / %: 28
//
compound: COc1ccc(-c2cc(=O)c3c(O)cc(O[C@@H]4O[C@H](CO[C@@H]5O[C@@H](C)[C@H](O)[C@H]6OC(C)(C)O[C@@H]56)[C@@H](O)[C@H](O)[C@H]4O)cc3o2)cc1O [No. 32]
inhibition in vivo at 200 mg/kg / %: 36
//
compound: CC1(C)OC[C@H]2O[C@@H](Oc3cc4ccc(=O)oc4cc3O)[C@H](O)[C@@H](O)[C@@H]2O1 [No. 15]
inhibition in vivo at 200 mg/kg / %: 1
//
compound: O=c1ccc2cc(O[C@@H]3O[C@@H]4COC5(CCCCC5)O[C@H]4[C@H](O)[C@H]3O)c(O)cc2o1 [No. 16]
inhibition in vivo at 200 mg/kg / %: 30
